# Read-out: succinate dehydrogenase complex iron sulfur subunit B (SDHB), SDHB (gene 6390)
# experiment: LTEA_HepaRG_SDHB: Life Technologies and Expression Analysis (LTEA) Assay for succinate dehydrogenase complex iron sulfur subunit B (SDHB) using HepaRG (AID 2283528)
# stated_conditions: mRNA level, 48 h; actives raise or lower the signal
Calls of active or inactive are those of the source. Rule for the calls: active = hit-call score of the fitted dose curve at least 0.9, where 1 is the maximum; inactive = score below 0.9.
Outcomes: active, inactive

# molecule, assigned_label
records = [
    ("COc1ccc(OC(F)(F)F)cc1CN[C@H]1CCCN[C@H]1c1ccccc1", "inactive"),
    ("NC=O", "inactive"),
    ("CCC(C)N(C)C(=O)c1cc2ccccc2c(-c2ccccc2Cl)n1 (configuration not stated)", "active"),
    ("COC(=O)CCC(=O)OC", "inactive"),
    ("Cc1cn([C@H]2C=C[C@@H](CO)O2)c(=O)[nH]c1=O", "inactive"),
    ("O=Cc1ccccc1C=O", "inactive"),
    ("Cc1ccc(C(C)(C)C)c(O)c1", "inactive"),
    ("CCCCC(CC)CO (configuration not stated)", "inactive"),
    ("O=C(N[C@@H](c1ccccc1)[C@@H]1CCCCN1)c1cccc(C(F)(F)F)c1Cl", "active"),
    ("CC(COCC(C)OC(=O)c1ccccc1)OC(=O)c1ccccc1 (configuration not stated)", "inactive"),
    ("CCCCCCCCCCCCCCCCO", "inactive"),
    ("N[C@@H](Cc1c[nH]c2ccccc12)C(=O)O", "inactive"),
    ("CCc1nc(N)nc(N)c1-c1ccc(Cl)cc1", "inactive"),
    ("CCOCCOCCO", "inactive"),
    ("Cc1cc(Cc2ccc(N)c(C)c2)ccc1N", "inactive"),
    ("C#CC(O)C(CC)CCCC (configuration not stated)", "inactive"),
    ("O=C1CCCCC1", "inactive"),
    ("CCc1cc(C2=C(C(=O)O)N(c3ccccc3C(F)(F)F)S(=O)(=O)c3ccccc32)cc2c1OCO2", "inactive"),
    ("CC1(C)C(=O)NC(=O)N1CO", "inactive"),
    ("CC(=O)O[C@]1(C(C)=O)CC[C@H]2[C@@H]3C=C(Cl)C4=CC(=O)[C@@H]5C[C@@H]5[C@]4(C)[C@H]3CC[C@@]21C", "inactive"),
    ("O=C(O)c1cccnc1", "inactive"),
    ("O=C1NC(=O)C(c2ccccc2)(c2ccccc2)N1", "inactive"),
    ("C=CCCCCCCCCCCCC", "inactive"),
    ("CN(C)C(=O)NC1(c2ccccc2)CCN(CCC[C@]2(c3ccc(Cl)c(Cl)c3)CCCN(C(=O)c3ccccc3)C2)CC1", "inactive"),
    ("CC(C)(C)c1ccccc1", "inactive"),
    ("CCCCCCCC(=O)OC", "inactive"),
    ("OCC(CO)n1cnc(-c2ccc(F)cc2)c1-c1ccnc(Oc2ccccc2)n1", "inactive"),
]

====

# experiment: CEETOX_H295R_DOC: CeeTox H295R High-throughput Steroidogenesis Assay for DOC (AID 2283439)
# stated_conditions: actives raise or lower the signal
Activity calls are given as the source filed them. Rule for the calls: active = hit-call score of the fitted dose curve at least 0.9, where 1 is the maximum; inactive = score below 0.9.
Possible outcomes: YES for active, NO for inactive

# mol_smiles, assigned_label
data = [
    ("O=C(O)CN(CC(=O)O)CC(=O)O", "NO"),
    ("O=C1c2c(O)cccc2Cc2cccc(O)c21", "NO"),
    ("S=c1[nH]c2ccccc2s1", "NO"),
    ("Cc1cc(Cc2ccc(N)c(C)c2)ccc1N", "YES"),
    ("Oc1ccc(O)cc1", "YES"),
    ("O=C1NC(=O)C(c2ccccc2)(c2ccccc2)N1", "NO"),
    ("O=C(Oc1ccccc1)c1cccc(C(=O)Oc2ccccc2)c1", "NO"),
    ("CC1=C(C)S(=O)(=O)CCS1(=O)=O", "NO"),
]
